Measured pIC50 by item
# system: Capsid scaffolding protein (Human cytomegalovirus (strain AD169) (HHV-5) (Human herpesvirus 5))
# test_method_notes: Concentration required for inhibition of human cytomegalo virus (HCMV) protease activity.
# Parameters: species or system Human herpesvirus 5 strain AD169
For clarity, pIC50 is expressed as the negative log10 of concentration in mol/L.

# count of solved cases: 10
CC(=O)N1C(=O)[C@@H](C)C2[C@@H]1CCN2CC(=O)Cc1ccccc1 (stereo partly drawn)
4.10
CC(=O)N1C(=O)[C@H](C)[C@H]2[C@H]1CCN2C(=O)[C@@H]1CCCN1S(=O)(=O)c1ccc([N+](=O)[O-])cc1
4.96
CC(=O)N1C(=O)[C@@H](C)C2[C@@H]1CCN2C(=O)COc1ccccc1 (stereo partly drawn)
4.20
CC(=O)N1C(=O)[C@@H](C)C2[C@@H]1CCN2S(=O)(=O)CCc1ccccc1 (stereo partly drawn)
4.35
C[C@@H]1C(=O)N(C(=O)C2Cc3ccccc32)[C@H]2CCN(C(=O)OCc3ccccc3)C12 (stereo partly drawn)
4.94
CC(C)Oc1cccc(S(=O)(=O)N2CCC[C@H]2C(=O)N2CC[C@H]3[C@H]2[C@H](C)C(=O)N3C(=O)C2CC2)c1
4.19
CC(=O)N1C(=O)[C@H](C)[C@H]2[C@H]1CCN2C(=O)[C@@H]1CCCN1S(=O)(=O)c1ccc(C)cc1
3.80
CC(NS(=O)(=O)c1cccc2c(N(C)C)cccc12)C(=O)N1CC[C@@H]2[C@@H]1[C@@H](C)C(=O)N2C(=O)C1CC1 (stereo partly drawn)
5.15
C[C@@H]1C(=O)N(C(=O)C2CC2)[C@H]2CCN(C(=O)OCc3ccccc3)C12 (stereo partly drawn)
5.05
C[C@@H]1C(=O)N(C(=O)C2CC2)[C@H]2CCN(C(=O)[C@@H]3CCCN3S(=O)(=O)c3cccc(C(=O)N(C)C)c3)[C@H]12
5.85

Input: Would you kindly share the measured pIC50 for CC1CC1C(=O)N1C(=O)[C@@H](C)C2[C@@H]1CCN2C(=O)OCc1ccccc1 (stereo partly drawn) ?
Output: 5.00

Input: So what's the measured pIC50 for this one? Cc1ccc(S(=O)(=O)N2CCCC2C(=O)N2CC[C@H]3C2[C@H](C)C(=O)N3C=O)cc1 (stereo partly drawn)
Output: 4.85

====

# system: Capsid scaffolding protein (Human cytomegalovirus (strain AD169) (HHV-5) (Human herpesvirus 5), UniProt P16753)
# Sequence (P16753 whole entry): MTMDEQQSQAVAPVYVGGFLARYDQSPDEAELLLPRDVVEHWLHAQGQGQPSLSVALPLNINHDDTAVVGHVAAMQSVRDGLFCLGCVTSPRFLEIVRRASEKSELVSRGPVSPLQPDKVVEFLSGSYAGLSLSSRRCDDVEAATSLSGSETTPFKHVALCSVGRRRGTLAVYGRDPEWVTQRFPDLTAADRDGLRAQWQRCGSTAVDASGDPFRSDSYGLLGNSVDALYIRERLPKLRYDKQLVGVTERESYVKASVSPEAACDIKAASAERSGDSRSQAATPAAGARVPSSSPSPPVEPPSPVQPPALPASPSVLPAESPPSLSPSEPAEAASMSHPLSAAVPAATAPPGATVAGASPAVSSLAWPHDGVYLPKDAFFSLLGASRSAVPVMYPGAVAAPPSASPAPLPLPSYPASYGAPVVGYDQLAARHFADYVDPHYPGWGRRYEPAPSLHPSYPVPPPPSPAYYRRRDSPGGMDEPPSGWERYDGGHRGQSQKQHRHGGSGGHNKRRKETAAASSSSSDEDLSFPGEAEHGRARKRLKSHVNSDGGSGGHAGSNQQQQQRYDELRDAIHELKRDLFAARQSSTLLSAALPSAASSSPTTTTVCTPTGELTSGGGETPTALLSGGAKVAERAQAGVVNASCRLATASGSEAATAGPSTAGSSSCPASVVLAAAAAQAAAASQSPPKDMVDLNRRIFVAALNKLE
# test_method_notes: Inhibition of Human cytomegalo virus(HCMV) protease activity measured by HPLC assay
# Design: species or system Human herpesvirus 5 strain AD169
quantity_name: IC50 (µM)
Numeric answer only, unit µM assumed.

C[C@@H]1C(=O)N(C(=O)CCO)[C@H]2CCN(C(=O)OCc3ccccc3)C12 (stereo not given in full)
133
CC(=O)N1C(=O)[C@@H](C)C2[C@@H]1CCN2C(=O)Cc1c(C)[nH]c2ccc(F)cc12 (stereo not given in full)
6
CC(=O)OCC(=O)N1C(=O)[C@@H](C)C2[C@@H]1CCN2C(=O)OCc1ccccc1 (stereo not given in full)
6

# context switch: different compound, same IC50
Input: Please look up its IC50: CC(=O)N1C(=O)[C@@H](C)C2[C@@H]1CCN2C(=O)C(=O)c1cccn1C (stereo not given in full)
Output: 5

====

# system: Capsid scaffolding protein (Human cytomegalovirus (strain AD169) (HHV-5) (Human herpesvirus 5), UniProt P16753)
# Sequence (P16753 whole entry): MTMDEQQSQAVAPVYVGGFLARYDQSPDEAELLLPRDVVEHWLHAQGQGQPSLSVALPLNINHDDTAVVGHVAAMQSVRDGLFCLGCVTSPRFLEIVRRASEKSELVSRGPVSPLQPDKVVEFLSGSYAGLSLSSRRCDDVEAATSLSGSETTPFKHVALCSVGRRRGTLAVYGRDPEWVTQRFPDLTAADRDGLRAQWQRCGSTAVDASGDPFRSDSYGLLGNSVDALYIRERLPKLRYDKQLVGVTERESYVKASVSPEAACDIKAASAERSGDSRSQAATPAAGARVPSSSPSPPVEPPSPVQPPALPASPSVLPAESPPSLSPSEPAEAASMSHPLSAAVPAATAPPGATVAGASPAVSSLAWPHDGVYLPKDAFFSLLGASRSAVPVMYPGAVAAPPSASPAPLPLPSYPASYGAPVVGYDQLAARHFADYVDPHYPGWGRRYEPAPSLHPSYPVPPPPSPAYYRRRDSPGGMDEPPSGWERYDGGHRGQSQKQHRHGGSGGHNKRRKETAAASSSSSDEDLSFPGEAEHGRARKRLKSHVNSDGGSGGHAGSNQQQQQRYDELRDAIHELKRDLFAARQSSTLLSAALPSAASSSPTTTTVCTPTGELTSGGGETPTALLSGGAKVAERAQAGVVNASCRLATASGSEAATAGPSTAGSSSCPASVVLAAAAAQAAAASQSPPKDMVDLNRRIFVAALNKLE
# test_method_notes: Concentration required for inhibition of human cytomegalo virus (HCMV) protease activity.
# Set-up: species or system Human herpesvirus 5 strain AD169
pIC50: −log10 of the molar value.
Respond with T for pIC50 values of 4 and above, F for values below.

Take a look at these entries with their results.
CC(=O)N1C(=O)[C@@H](C)[C@@H]2[C@@H]1CCN2C(=O)[C@@H]1CCCN1S(=O)(=O)c1cccc2c(N(C)C)cccc12
T
C[C@@H]1C(=O)N(C(=O)C2[C@@H](C)[C@H]2C)[C@H]2CCN(C(=O)OCc3ccccc3)C12 (some centres not stated)
T
C[C@@H]1C(=O)N(C(=O)C2CC2)[C@H]2CCN(C(=O)[C@@H]3CCCN3S(=O)(=O)Cc3cccc(N(C)C)c3)[C@H]12
T
C[C@H]1C(=O)N(C(=O)C2CC2)[C@@H]2CCN(C(=O)C3CCCCN3S(=O)(=O)c3cccc4c(N(C)C)cccc34)[C@H]21 (some centres not stated)
T

Input: // inclusive: pIC50 at least 4? input: `CC(=O)N1C(=O)[C@H](C)[C@H]2[C@H]1CCN2C(=O)[C@@H]1CCCN1C(=O)c1ccccc1`
Output: F

Input: Could you tell me if the measured pIC50 of `CC(=O)N1C(=O)[C@@H](C)[C@@H]2[C@@H]1CCN2C(=O)[C@@H]1CCCN1C(=O)c1ccccc1` reaches 4 or more?
Output: T

Input: Quick check, pIC50 >= 4? C[C@@H]1C(=O)N(C=O)[C@H]2CCN(C(=O)OCc3ccccc3)C12 (some centres not stated)
Output: F

====

# system: Prothrombin (Homo sapiens, UniProt P00734)
pIC50: −log10 of the molar value.
Catalogue of compounds with associated pIC50

CC(=O)N1C(=O)[C@@H](C)[C@@H]2[C@@H]1CCN2C(=O)[C@@H]1CCCN1S(=O)(=O)c1cccc2c(N(C)C)cccc12
< 3.70

Consider the record given below.
Input: Provide the documented pIC50 with Prothrombin (Homo sapiens, UniProt P00734) as the system for `C[C@@H]1C(=O)N(C(=O)C2CC2)[C@H]2CCN(C(=O)[C@@H]3CCCN3S(=O)(=O)c3cccc4c(N(C)C)cccc34)[C@H]12`
Output: < 3.70

====

In this section, each of the molecules is paired with its reported IC50.
# system: Capsid scaffolding protein (Human cytomegalovirus (strain AD169) (HHV-5) (Human herpesvirus 5), UniProt P16753)
# Sequence (P16753 whole entry): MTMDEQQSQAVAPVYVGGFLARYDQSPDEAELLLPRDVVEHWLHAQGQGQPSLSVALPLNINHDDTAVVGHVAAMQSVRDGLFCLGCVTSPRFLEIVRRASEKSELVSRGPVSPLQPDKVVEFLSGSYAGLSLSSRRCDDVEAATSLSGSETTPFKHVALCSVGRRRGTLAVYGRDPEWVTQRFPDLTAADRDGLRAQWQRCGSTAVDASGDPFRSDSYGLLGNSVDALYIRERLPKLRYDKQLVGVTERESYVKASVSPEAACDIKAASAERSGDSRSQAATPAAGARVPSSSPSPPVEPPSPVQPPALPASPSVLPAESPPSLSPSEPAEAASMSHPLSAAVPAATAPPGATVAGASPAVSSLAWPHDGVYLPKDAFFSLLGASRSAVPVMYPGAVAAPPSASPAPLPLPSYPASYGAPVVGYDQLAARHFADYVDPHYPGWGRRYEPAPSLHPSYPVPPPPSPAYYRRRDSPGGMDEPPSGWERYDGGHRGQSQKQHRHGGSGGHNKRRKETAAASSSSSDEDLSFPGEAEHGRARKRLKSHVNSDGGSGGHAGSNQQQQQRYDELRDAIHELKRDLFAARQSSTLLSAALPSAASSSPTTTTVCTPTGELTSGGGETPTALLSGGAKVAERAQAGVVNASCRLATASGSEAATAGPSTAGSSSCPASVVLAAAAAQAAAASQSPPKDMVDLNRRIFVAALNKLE
# test_method_notes: Inhibition of Human cytomegalo virus(HCMV) protease activity measured by HPLC assay
# Set-up: species or system Human herpesvirus 5 strain AD169
Answer with the value and then the unit.

C[C@@H]1C(=O)N(C(=O)C2CCC2)[C@H]2CCN(C(=O)OCc3ccccc3)C12 (stereo partly drawn)
32 µM
CC(=O)OCC(=O)N1C(=O)C(C)C2C1CCN2C(=O)OCc1ccccc1 (stereo not drawn)
13 µM

Consider the record given below.
Input: Which IC50 is listed for CC(C)C(=O)N1C(=O)[C@@H](C)C2[C@@H]1CCN2C(=O)OCc1ccccc1 (stereo partly drawn) ?
Output: 126 µM

The reported numbers originate from ChEMBL document CHEMBL1135388.
